# Tested on: Escherichia coli
# protocol summary: Antibacterial activity against Escherichia coli after 24 hrs by serial dilution method
# Format: functional
value kind: MBC

Sample records with MBC:
[
  {
    "cpd smiles": "O=C(N/N=C/c1ccccc1Cl)c1cc([N+](=O)[O-])cc([N+](=O)[O-])c1",
    "MBC": ">0.13 uM/ml"
  },
  {
    "cpd smiles": "O=C(N/N=C/c1ccccc1)c1cc([N+](=O)[O-])cc([N+](=O)[O-])c1",
    "MBC": ">0.159 uM/ml"
  },
  {
    "cpd smiles": "CCCCCCCCCCCCCCCCCC(=O)N/N=C/c1ccccc1Cl",
    "MBC": ">0.119 uM/ml"
  }
]

Ask: Output MBC of Cc1cccc(C(=O)N/N=C/c2ccccc2)c1
Reply: >0.21 uM/ml

* * *

# Test system: Aspergillus niger
# protocol summary: Antifungal activity against Aspergillus niger after 7 days by serial dilution method
# Format: functional
value kind: MFC

Sample records with MFC:
[
  {
    "cpd smiles": "CCCCCCCCCCCC(=O)N/N=C/c1ccccc1Cl",
    "MFC": ">0.148 uM/ml"
  },
  {
    "cpd smiles": "CCCCCCCCCCCCCC(=O)N/N=C/c1ccccc1",
    "MFC": ">0.152 uM/ml"
  },
  {
    "cpd smiles": "O=C(/C=C/c1ccccc1)N/N=C/c1ccccc1",
    "MFC": ">0.2 uM/ml"
  },
  {
    "cpd smiles": "CCCCCCCCCCCCCCCC(=O)N/N=C/c1ccccc1",
    "MFC": ">0.139 uM/ml"
  }
]

// each listed compound needs a value for MFC
1. COc1cc(OC)cc(C(=O)N/N=C/c2ccccc2)c1
2. C/C=C/C=C/C(=O)N/N=C/c1ccccc1
3. CCCCCCCCCCCCCCCC(=O)N/N=C/c1ccccc1Cl
4. O=C(N/N=C/c1ccccc1)c1cc([N+](=O)[O-])cc([N+](=O)[O-])c1
5. O=C(/C=C/c1ccccc1)N/N=C/c1ccccc1Cl
6. C/C=C/C=C/C(=O)N/N=C/c1ccccc1Cl

Reply:
1. 0.022 uM/ml
2. >0.233 uM/ml
3. >0.127 uM/ml
4. 0.079 uM/ml
5. >0.176 uM/ml
6. >0.201 uM/ml

From: ChEMBL document CHEMBL1177846
